- Tested on: 521955-158-R2-J5-PDC complex spheroid growth, % test/control
- MEASUREMENT NOTES: Anticancer human tumor 521955-158-R2-J5-PDC patient-derived pancreatic carcinoma cell line growth inhibition [Asc]
- TEST CONTEXT: second compound 0.1 µM; first compound 3 µM; hits give low values
Reported viability, T/C values are given for each entry in this list.

COMPOUND	ASSAY METRIC	RESULT
CCN1C(C(=O)NC23CCC(C(=O)O)(CC2)CC3)C(c2cccc(Cl)c2F)C2(C(=O)Nc3cc(Cl)ccc32)C12CCCCC2 (centres undefined) + CNC(C)C(=O)NC1CN(S(=O)(=O)c2cccc(S(=O)(=O)N3CCC4CCC(C(=O)NC(c5ccccc5)c5ccccc5)N4C(=O)C(NC(=O)C(C)NC)C3)c2)CCC2CCC(C(=O)NC(c3ccccc3)c3ccccc3)N2C1=O	viability, T/C	118%
Cc1nc(N2CCC3(CC2)COC(C)C3N)c(CO)nc1Sc1ccnc(N)c1Cl (centres undefined) + CNC(C)C(=O)NC1CN(S(=O)(=O)c2cccc(S(=O)(=O)N3CCC4CCC(C(=O)NC(c5ccccc5)c5ccccc5)N4C(=O)C(NC(=O)C(C)NC)C3)c2)CCC2CCC(C(=O)NC(c3ccccc3)c3ccccc3)N2C1=O	viability, T/C	46.9%
Cc1nc(N2CCC3(CC2)COC(C)C3N)c(CO)nc1Sc1ccnc(N)c1Cl (centres undefined) + Cc1c(S(C)(=O)=O)c(-c2cc(F)cc(N3CCN(c4ccc(NS(=O)(=O)c5ccc(NC(CCN6CCC(C(=O)OCCCP(=O)(O)O)CC6)CSc6ccccc6)c(S(=O)(=O)C(F)(F)F)c5)cc4)CC3)c2)c(-c2ccc(Cl)cc2)n1C(C)C	viability, T/C	36.9%

Check the records and state viability, T/C for CCN1C(C(=O)NC23CCC(C(=O)O)(CC2)CC3)C(c2cccc(Cl)c2F)C2(C(=O)Nc3cc(Cl)ccc32)C12CCCCC2 (centres undefined) + Cc1c(S(C)(=O)=O)c(-c2cc(F)cc(N3CCN(c4ccc(NS(=O)(=O)c5ccc(NC(CCN6CCC(C(=O)OCCCP(=O)(O)O)CC6)CSc6ccccc6)c(S(=O)(=O)C(F)(F)F)c5)cc4)CC3)c2)c(-c2ccc(Cl)cc2)n1C(C)C 92.6%

---

- Tested on: 521955-158-R2-J5-PDC complex spheroid growth, % test/control
- MEASUREMENT NOTES: Anticancer human tumor 521955-158-R2-J5-PDC cell line growth inhibition [Asc];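 further: spheroids exposed to agents for 7 days before readout; 100% = DMSO vehicle control viability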
- TEST CONTEXT: second compound 3.16 µM; first compound 0.0316 µM; hits give low values
- Source text: Multicellular complex tumor spheroid response to apoptosis pathway targeting inhibitors Alrizomadlin, Pelcitoclax, and Dasminapant in combination with a variety of drugs and investigational agents in selected tumor cell lines […] Compounds. […] If the clinical Cmax for an agent had not been determined, the highest concentration tested was 10 microM. […]
Reported viability, T/C values are given for each entry in this list.
Reply with just the number (in %).

COMPOUND	ASSAY SYSTEM	UNIT SYMBOL	viability, T/C
NC1CCC(NC2CC2c2ccccc2)CC1 (stereo not drawn) + Cc1c(S(C)(=O)=O)c(-c2cc(F)cc(N3CCN(c4ccc(NS(=O)(=O)c5ccc(NC(CCN6CCC(C(=O)OCCCP(=O)(O)O)CC6)CSc6ccccc6)c(S(=O)(=O)C(F)(F)F)c5)cc4)CC3)c2)c(-c2ccc(Cl)cc2)n1C(C)C	521955-158-R2-J5-PDC complex spheroid growth, % test/control	%	30.7
C#Cc1c(F)ccc2cc(O)cc(-c3ncc4c(N5CC6CCC(C5)N6)nc(OCC56CCCN5CC(F)C6)nc4c3F)c12 (stereo not drawn) + Cc1c(S(C)(=O)=O)c(-c2cc(F)cc(N3CCN(c4ccc(NS(=O)(=O)c5ccc(NC(CCN6CCC(C(=O)OCCCP(=O)(O)O)CC6)CSc6ccccc6)c(S(=O)(=O)C(F)(F)F)c5)cc4)CC3)c2)c(-c2ccc(Cl)cc2)n1C(C)C	521955-158-R2-J5-PDC complex spheroid growth, % test/control	%	42.2

// switching to the query compound
Check the records and state viability, T/C for C=CC(=O)N1CCN(c2nc(=O)n(-c3c(C)ccnc3C(C)C)c3nc(-c4c(O)cccc4F)c(F)cc23)C(C)C1 (stereo not drawn) + Cc1c(S(C)(=O)=O)c(-c2cc(F)cc(N3CCN(c4ccc(NS(=O)(=O)c5ccc(NC(CCN6CCC(C(=O)OCCCP(=O)(O)O)CC6)CSc6ccccc6)c(S(=O)(=O)C(F)(F)F)c5)cc4)CC3)c2)c(-c2ccc(Cl)cc2)n1C(C)C 73.7
